test system: 171881-019-R-J1-PDC tumor spheroids, viability; experiment: Anticancer human tumor 171881-019-R-J1-PDC patient-derived invasive breast carcinoma cell line growth inhibition [GQUAD]; details: second compound 0.316 µM; first compound 0.1 µM; hits give low values; spheroids with HUVEC and MSC
# label 1 = viability, T/C below 70% (exclusive); label 0 = viability, T/C at/above 70%

[
  {
    "molecule": "COc1cc(C2c3cc4c(cc3C(OC3OC5COC(C)OC5C(O)C3O)C3COC(=O)C23)OCO4)cc(OC)c1O (stereo unspecified) + Cc1cnc(CNC(=O)c2c(=O)c3ccc(N4CCCN(C)CC4)nc3n3c2sc2ccccc23)cn1",
    "assayed.target": "171881-019-R-J1-PDC tumor spheroids, viability",
    "assigned.class": "label 0"
  },
  {
    "molecule": "O=C(NO)c1cnc(N2CCN(S(=O)(=O)c3ccc4ccccc4c3)CC2)nc1 + Cc1[nH]c2ccc(F)cc2c1-c1nc2c3cccnc3c3ncccc3c2[nH]1",
    "assayed.target": "171881-019-R-J1-PDC tumor spheroids, viability",
    "assigned.class": "label 1"
  },
  {
    "molecule": "CC1COCCN1c1cc(C2(O)CC3CCC(C2)O3)c2cnn(-c3ccn[nH]3)c2n1 (stereo unspecified) + Cc1cnc(CNC(=O)c2c(=O)c3ccc(N4CCCN(C)CC4)nc3n3c2sc2ccccc23)cn1",
    "assayed.target": "171881-019-R-J1-PDC tumor spheroids, viability",
    "assigned.class": "label 1"
  }
]

Please state whether viability, T/C is below 70% for O=c1[nH]cc(F)c(=O)[nH]1 + Cc1[nH]c2ccc(F)cc2c1-c1nc2c3cccnc3c3ncccc3c2[nH]1
label 1

Please state whether viability, T/C is below 70% for C=CC(=O)N1CCN(c2nc(=O)n(-c3c(C)ccnc3C(C)C)c3nc(-c4c(O)cccc4F)c(F)cc23)C(C)C1 (stereo unspecified) + Cc1cnc(CNC(=O)c2c(=O)c3ccc(N4CCCN(C)CC4)nc3n3c2sc2ccccc23)cn1
label 0

Please state whether viability, T/C is below 70% for Cc1cccc(N(C)C(=O)C2C(O)CCN2c2nc(C)cc(C(F)(F)F)c2C#N)c1 (stereo unspecified) + Cc1[nH]c2ccc(F)cc2c1-c1nc2c3cccnc3c3ncccc3c2[nH]1
label 0

###

test system: 171881-019-R-J1-PDC tumor spheroids, viability; assay: Anticancer human tumor 171881-019-R-J1-PDC cell line growth inhibition [GQUAD]; conditions: second compound 0.1 µM; first compound 3.16 µM; spheroids with HUVEC and MSC; active means viability on the fitted dose curve at most 10% of control; inactive means the rest;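 further: spheroids exposed to compounds for 7 days; 100% = DMSO vehicle control viability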
Allowed answers: Y for active, N for inactive

See these solved cases before continuing.
[
  {
    "compound": "CC1COCCN1c1cc(-c2ccnn2C)c2ccnc(-c3ccn[nH]3)c2n1 (stereo not given) + Cc1[nH]c2ccc(F)cc2c1-c1nc2c3cccnc3c3ncccc3c2[nH]1",
    "assigned.class": "Y"
  },
  {
    "compound": "CC(=O)O[C@H]1C(=O)[C@@]2(C)[C@H]([C@H](OC(=O)c3ccccc3)[C@]3(O)C[C@H](OC(=O)[C@H](O)[C@@H](NC(=O)c4ccccc4)c4ccccc4)C(C)=C1C3(C)C)[C@]1(OC(C)=O)CO[C@@H]1C[C@@H]2O + Cc1[nH]c2ccc(F)cc2c1-c1nc2c3cccnc3c3ncccc3c2[nH]1",
    "assigned.class": "N"
  },
  {
    "compound": "COc1ncnc(C2CC2)c1-c1ncc2cnn(Cc3ccc(-c4nc(C(F)(F)F)cn4C(C)C)cc3)c2n1 + Cc1[nH]c2ccc(F)cc2c1-c1nc2c3cccnc3c3ncccc3c2[nH]1",
    "assigned.class": "N"
  },
  {
    "compound": "COc1ccc([C@@H](O)c2cc(-c3ncnc4cc(N5CCOCC5)ccc34)c(F)cc2Cl)nn1 + Cc1cnc(CNC(=O)c2c(=O)c3ccc(N4CCCN(C)CC4)nc3n3c2sc2ccccc23)cn1",
    "assigned.class": "Y"
  },
  {
    "compound": "CC(C)(O)C1CCC(Nc2ccc3ncc(-c4cccc(C(F)(F)F)c4)n3n2)CC1 (stereo not given) + CN(C)c1ccc(Nc2c3ccc(NC(=O)CCN4CCCC4)cc3nc3cc(NC(=O)CCN4CCCC4)ccc23)cc1",
    "assigned.class": "N"
  },
  {
    "compound": "CC1COCCN1c1cc(C2(S(C)(=N)=O)CC2)nc(-c2ccnc3[nH]ccc23)n1 (stereo not given) + CN(C)c1ccc(Nc2c3ccc(NC(=O)CCN4CCCC4)cc3nc3cc(NC(=O)CCN4CCCC4)ccc23)cc1",
    "assigned.class": "N"
  },
  {
    "compound": "C#Cc1c(F)ccc2cc(O)cc(-c3ncc4c(N5CC6CCC(C5)N6)nc(OCC56CCCN5CC(F)C6)nc4c3F)c12 (stereo not given) + Cc1cnc(CNC(=O)c2c(=O)c3ccc(N4CCCN(C)CC4)nc3n3c2sc2ccccc23)cn1",
    "assigned.class": "N"
  },
  {
    "compound": "COc1ccc([C@@H](O)c2cc(-c3ncnc4cc(N5CCOCC5)ccc34)c(F)cc2Cl)nn1 + Cc1[nH]c2ccc(F)cc2c1-c1nc2c3cccnc3c3ncccc3c2[nH]1",
    "assigned.class": "N"
  }
]

Recorded call for COc1cccc2c1C(=O)c1c(O)c3c(c(O)c1C2=O)CC(O)(C(=O)CO)CC3OC1CC(N)C(O)C(C)O1 (stereo not given) + Cc1[nH]c2ccc(F)cc2c1-c1nc2c3cccnc3c3ncccc3c2[nH]1 ?
Y

Recorded call for COc1cc(C2c3cc4c(cc3C(OC3OC5COC(C)OC5C(O)C3O)C3COC(=O)C23)OCO4)cc(OC)c1O (stereo not given) + Cc1[nH]c2ccc(F)cc2c1-c1nc2c3cccnc3c3ncccc3c2[nH]1 ?
N

###

Measured viability, T/C of individual entries
test system: 171881-019-R-J1-PDC tumor spheroids, viability; assay: Anticancer human tumor 171881-019-R-J1-PDC cell line growth inhibition [GQUAD]; settings: second compound 0.1 µM; first compound 0.0316 µM; hits give low values; spheroids with HUVEC and MSC;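 further: spheroids exposed to compounds for 7 days; 100% = DMSO vehicle control viability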

Here's what some known entries look like.
[
  {
    "compound": "COc1ccc([C@@H](O)c2cc(-c3ncnc4cc(N5CCOCC5)ccc34)c(F)cc2Cl)nn1 + CN(C)c1ccc(Nc2c3ccc(NC(=O)CCN4CCCC4)cc3nc3cc(NC(=O)CCN4CCCC4)ccc23)cc1",
    "viability, T/C": "94.5%"
  },
  {
    "compound": "COc1ncnc(C2CC2)c1-c1ncc2cnn(Cc3ccc(-c4nc(C(F)(F)F)cn4C(C)C)cc3)c2n1 + CN(C)c1ccc(Nc2c3ccc(NC(=O)CCN4CCCC4)cc3nc3cc(NC(=O)CCN4CCCC4)ccc23)cc1",
    "viability, T/C": "97%"
  }
]

I'm curious: which viability, T/C was measured for CCCS(=O)(=O)Nc1ccc(F)c(C(=O)c2c[nH]c3ncc(-c4ccc(Cl)cc4)cc23)c1F + Cc1[nH]c2ccc(F)cc2c1-c1nc2c3cccnc3c3ncccc3c2[nH]1 tested on 171881-019-R-J1-PDC tumor spheroids, viability?
105%

I'm curious: which viability, T/C was measured for CC(C)n1c(=O)n(C)c2cnc3cc(F)c(-c4ccc(OCCCN5CCCCC5)nc4)cc3c21 + CN(C)c1ccc(Nc2c3ccc(NC(=O)CCN4CCCC4)cc3nc3cc(NC(=O)CCN4CCCC4)ccc23)cc1 tested on 171881-019-R-J1-PDC tumor spheroids, viability?
93%

I'm curious: which viability, T/C was measured for COc1cc(C2c3cc4c(cc3C(OC3OC5COC(C)OC5C(O)C3O)C3COC(=O)C23)OCO4)cc(OC)c1O (stereo not given) + Cc1cnc(CNC(=O)c2c(=O)c3ccc(N4CCCN(C)CC4)nc3n3c2sc2ccccc23)cn1 tested on 171881-019-R-J1-PDC tumor spheroids, viability?
83.7%

###

test system: 171881-019-R-J1-PDC tumor spheroids, viability; experiment: Anticancer human tumor 171881-019-R-J1-PDC cell line growth inhibition [GQUAD]; conditions: second compound 10 µM; first compound 10 µM; spheroids with HUVEC and MSC; active means viability on the fitted dose curve at most 10% of control; inactive means the rest;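 further: spheroids exposed to compounds for 7 days; 100% = DMSO vehicle control viability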
Allowed answers: active, inactive

[
  {
    "compound": "O=C(c1cc(Cc2n[nH]c(=O)c3ccccc23)ccc1F)N1CCN(C(=O)C2CC2)CC1 + CN(C)c1ccc(Nc2c3ccc(NC(=O)CCN4CCCC4)cc3nc3cc(NC(=O)CCN4CCCC4)ccc23)cc1",
    "assayed.target": "171881-019-R-J1-PDC tumor spheroids, viability",
    "assigned.class": "active"
  },
  {
    "compound": "CCCS(=O)(=O)Nc1ccc(F)c(C(=O)c2c[nH]c3ncc(-c4ccc(Cl)cc4)cc23)c1F + Cc1[nH]c2ccc(F)cc2c1-c1nc2c3cccnc3c3ncccc3c2[nH]1",
    "assayed.target": "171881-019-R-J1-PDC tumor spheroids, viability",
    "assigned.class": "inactive"
  },
  {
    "compound": "COc1ncnc(C2CC2)c1-c1ncc2cnn(Cc3ccc(-c4nc(C(F)(F)F)cn4C(C)C)cc3)c2n1 + CN(C)c1ccc(Nc2c3ccc(NC(=O)CCN4CCCC4)cc3nc3cc(NC(=O)CCN4CCCC4)ccc23)cc1",
    "assayed.target": "171881-019-R-J1-PDC tumor spheroids, viability",
    "assigned.class": "active"
  }
]

Recorded call for CC(C)n1c(=O)n(C)c2cnc3cc(F)c(-c4ccc(OCCCN5CCCCC5)nc4)cc3c21 + Cc1cnc(CNC(=O)c2c(=O)c3ccc(N4CCCN(C)CC4)nc3n3c2sc2ccccc23)cn1 ?
inactive

Recorded call for CC(=O)O[C@H]1C(=O)[C@@]2(C)[C@H]([C@H](OC(=O)c3ccccc3)[C@]3(O)C[C@H](OC(=O)[C@H](O)[C@@H](NC(=O)c4ccccc4)c4ccccc4)C(C)=C1C3(C)C)[C@]1(OC(C)=O)CO[C@@H]1C[C@@H]2O + Cc1[nH]c2ccc(F)cc2c1-c1nc2c3cccnc3c3ncccc3c2[nH]1 ?
inactive

Recorded call for CCCS(=O)(=O)Nc1ccc(F)c(C(=O)c2c[nH]c3ncc(-c4ccc(Cl)cc4)cc23)c1F + CN(C)c1ccc(Nc2c3ccc(NC(=O)CCN4CCCC4)cc3nc3cc(NC(=O)CCN4CCCC4)ccc23)cc1 ?
active

Recorded call for C#Cc1c(F)ccc2cc(O)cc(-c3ncc4c(N5CC6CCC(C5)N6)nc(OCC56CCCN5CC(F)C6)nc4c3F)c12 (stereo not given) + Cc1[nH]c2ccc(F)cc2c1-c1nc2c3cccnc3c3ncccc3c2[nH]1 ?
active

Recorded call for COc1ncnc(C2CC2)c1-c1ncc2cnn(Cc3ccc(-c4nc(C(F)(F)F)cn4C(C)C)cc3)c2n1 + Cc1[nH]c2ccc(F)cc2c1-c1nc2c3cccnc3c3ncccc3c2[nH]1 ?
inactive

Recorded call for CC1COCCN1c1cc(C2(O)CC3CCC(C2)O3)c2cnn(-c3ccn[nH]3)c2n1 (stereo not given) + CN(C)c1ccc(Nc2c3ccc(NC(=O)CCN4CCCC4)cc3nc3cc(NC(=O)CCN4CCCC4)ccc23)cc1 ?
active

Recorded call for Nc1ccn(C2OC(CO)C(O)C2(F)F)c(=O)n1 (stereo not given) + Cc1cnc(CNC(=O)c2c(=O)c3ccc(N4CCCN(C)CC4)nc3n3c2sc2ccccc23)cn1 ?
inactive
